Heads up, these compounds all have GI50 values measured for NCI/ADR-RES ovarian.

Q: GI50 lookup needed for CC(=O)N(Cc1ccccc1)c1ccccc1I(=O)=O , thanks.
A: 37.8 µM

Q: GI50 lookup needed for CC1=C(C(=O)Nc2ccc(Cl)c(Cl)c2)C(c2ccccc2O)NC(=O)N1 (stereo not given) , thanks.
A: > 50 µM

Q: GI50 lookup needed for CSC1=NCC2(S1)c1ccccc1N(C(=O)OC(C)(C)C)C2N1CCCCC1 (stereo not given) , thanks.
A: > 100 µM

Q: GI50 lookup needed for Nc1ccc2c(c1)c(N)nn2C(=O)Nc1ccc(Cc2ccccc2)cc1 , thanks.
A: 17.4 µM

Q: GI50 lookup needed for COc1cccc(/C=C/C(=O)c2cc3c(N)c(C(=O)Nc4cccc5ccccc45)sc3nc2C)c1 , thanks.
A: 1.33 µM

###

# Tested on: MDA-MB-435
# RUN_DESCRIPTION: NCI tumour cell line growth inhibition, 48 h
Could you please report measured TGI for the items listed next?

Q: TGI lookup needed for O=C(NCCCCCCCNC(=O)OCc1ccc2c(Cl)cc(Cl)c(O)c2n1)OCc1ccc2c(Cl)cc(Cl)c(O)c2n1 , thanks.
A: 0.931 µM

Q: TGI lookup needed for CCC(CC(C)C)Nc1ccc(NC(CC)CC(C)C)cc1 (stereo not given) , thanks.
A: 40 µM

Q: TGI lookup needed for CC1COCC(C)N1C1=C(Cl)C(=O)c2ccccc2C1=O (stereo not given) , thanks.
A: 2.73 µM

Q: TGI lookup needed for Nc1ccc(S(=O)(=O)Nc2cnc3c(Cl)cccc3n2)cc1 , thanks.
A: > 750 µM

Q: TGI lookup needed for CC(=O)Nc1cc(Nc2cc(=O)[nH]c(=O)[nH]2)ccc1C , thanks.
A: > 100 µM

Q: TGI lookup needed for c1ccc(-c2nnn(CCN3CCCCC3)n2)cc1 , thanks.
A: > 100 µM

Q: TGI lookup needed for Cc1ccc(/C(O)=C/c2nc3ccc([N+](=O)[O-])cc3nc2/C=C(\O)c2ccc(C)cc2)cc1 , thanks.
A: > 100 µM

Q: TGI lookup needed for Cc1cc2cc3c(cc2c(-c2ccc(N)cc2)n1)OCO3 , thanks.
A: > 100 µM

Q: TGI lookup needed for CCOC(=O)c1cn(C)c(=S)n2c1nc1ccccc12 , thanks.
A: > 100 µM

Q: TGI lookup needed for CC(=O)N(Cc1ccccc1)c1ccccc1I(=O)=O , thanks.
A: > 100 µM

Q: TGI lookup needed for NCCOCC(N)C(=O)O (stereo not given) , thanks.
A: > 100 µM

Q: TGI lookup needed for CC1(C)OC2C(COS(N)(=O)=O)SC(n3cnc4cncnc43)C2O1 (stereo not given) , thanks.
A: > 100 µM

Q: TGI lookup needed for CCOC(=O)C1CCCCN1CCc1c[nH]c2ccccc12 (stereo not given) , thanks.
A: > 100 µM

Q: TGI lookup needed for C(/Cc1ccc2c(c1)OCO2)=N\NC1=NCCCN1 , thanks.
A: > 100 µM

Q: TGI lookup needed for Cc1ccccc1OC(C)C(=O)NN1C(=O)CC(=O)N(c2ccccc2)C1=S (stereo not given) , thanks.
A: > 100 µM

Q: TGI lookup needed for O=C(Cc1csc2nc(-c3ccc(Br)cc3)cn12)N/N=C/c1ccc(O)cc1 , thanks.
A: 24.3 µM

Q: TGI lookup needed for CC(=O)Oc1ccc2c(c1)CC[C@@H]1C2CC[C@]2(C)C(=O)NC(=O)CC12 (stereo not given in full) , thanks.
A: > 100 µM

Q: TGI lookup needed for CC1OC2OC3C(OCC(O)C3O)OC(=O)[C@]34CCC(C)(C)CC3C3=CCC5[C@@]6(C)C[C@H](O)[C@H](OC7OC(CO)C(O)C(O)C7OC7OCC(OC(=O)CC(C)(O)CC(=O)OC1C(OC1OC(CO)C(O)C(O)C1O)C2O)C(O)C7O)[C@@](C)(CO)C6CC[C@@]5(C)[C@]3(C)CC4 (stereo not given in full) , thanks.
A: 11.4 µM

Q: TGI lookup needed for C/C(=N\Nc1nc2ccccc2[nH]1)c1cc2ccccc2cn1 , thanks.
A: 1.1 µM

Q: TGI lookup needed for Cc1[nH]c(=O)[nH]c(=S)c1C(=O)Nc1cccc2cc3ccccc3cc12 , thanks.
A: > 100 µM

###

Could you please report measured TGI for the items listed next?
# Test system: MCF7 breast
# RUN_DESCRIPTION: NCI tumour cell line growth inhibition, 48 h

Q: TGI lookup needed for CCC(CC(C)C)Nc1ccc(NC(CC)CC(C)C)cc1 (stereo unspecified) , thanks.
A: 28.4 µM

Q: TGI lookup needed for COC(=O)CCCC(=O)NC1=C(NCc2ccccc2)C(=O)c2ccccc2C1=O , thanks.
A: > 100 µM

Q: TGI lookup needed for CC(=O)N(Cc1ccccc1)c1ccccc1I(=O)=O , thanks.
A: 40.5 µM

Q: TGI lookup needed for Cc1cc2cc3c(cc2c(-c2ccc(N)cc2)n1)OCO3 , thanks.
A: 53.6 µM

Q: TGI lookup needed for COc1ccc(CCN2CCc3c(C)c(C#N)c4nc5ccccc5n4c32)cc1OC , thanks.
A: > 100 µM

Q: TGI lookup needed for N#Cc1nc(C#N)n(C(=O)c2ccccc2)c1NC(=O)c1ccccc1 , thanks.
A: > 100 µM

Q: TGI lookup needed for Cc1ccc(S(=O)(=O)n2cc(C#N)c(C#N)c2)cc1 , thanks.
A: 48.2 µM

Q: TGI lookup needed for CC(=O)Oc1ccc2c(c1)CC[C@@H]1C2CC[C@]2(C)C(=O)NC(=O)CC12 (stereo partly specified) , thanks.
A: > 100 µM

Q: TGI lookup needed for CC1OC2OC3C(OCC(O)C3O)OC(=O)[C@]34CCC(C)(C)CC3C3=CCC5[C@@]6(C)C[C@H](O)[C@H](OC7OC(CO)C(O)C(O)C7OC7OCC(OC(=O)CC(C)(O)CC(=O)OC1C(OC1OC(CO)C(O)C(O)C1O)C2O)C(O)C7O)[C@@](C)(CO)C6CC[C@@]5(C)[C@]3(C)CC4 (stereo partly specified) , thanks.
A: 23.6 µM

Q: TGI lookup needed for CC(=O)Oc1ccc(/C=N/NC(N)=S)nc1 , thanks.
A: > 100 µM

Q: TGI lookup needed for S=C(NCc1ccccc1)N/N=C/c1ccccn1 , thanks.
A: > 100 µM

Q: TGI lookup needed for Cc1nc(-c2cc3cc(Cl)ccc3oc2=O)cc2c1c(=O)oc1ccc(Cl)cc12 , thanks.
A: > 100 µM

Q: TGI lookup needed for NCCOCC(N)C(=O)O (stereo unspecified) , thanks.
A: > 100 µM

Q: TGI lookup needed for O=C(Cc1ccccc1)NN1C(=O)/C(=C\c2ccc(O)cc2)SC1=Nc1ccccc1 , thanks.
A: > 100 µM

Q: TGI lookup needed for COc1cccc(/C=C/C(=O)c2cc3c(N)c(C(=O)Nc4cccc5ccccc45)sc3nc2C)c1 , thanks.
A: > 50 µM

Q: TGI lookup needed for CSc1ccc(/C=C2\N=C(c3ccccc3)N(/N=C/c3cc4cc(C)ccc4nc3Cl)C2=O)cc1 , thanks.
A: 43.2 µM

Q: TGI lookup needed for CCOC(=O)c1cn(C)c(=S)n2c1nc1ccccc12 , thanks.
A: > 100 µM

Q: TGI lookup needed for COC1(OC)c2no[n+]([O-])c2C(OC)(OC)c2c1no[n+]2[O-] , thanks.
A: 42.7 µM

Q: TGI lookup needed for CC(NC(=O)c1ccccc1)(C(=O)O)C(=O)O , thanks.
A: > 100 µM

Q: TGI lookup needed for Cn1c2ccccc2n2c3ncccc3c(=S)c(C#N)c12 , thanks.
A: > 100 µM

Q: TGI lookup needed for COc1ccc2nc3n(c2c1)CCc1cc(OC)c(OC)cc1-3 , thanks.
A: > 100 µM

###

# Test system: DMS 273 small cell lung
# RUN_DESCRIPTION: NCI tumour cell line growth inhibition, 48 h
Could you please report measured TGI for the items listed next?

Q: TGI lookup needed for CCOC(=O)[C@H]1Nc2ccccc2C2c3ccccc3CC21 (stereo not given in full) , thanks.
A: > 100 µM

Q: TGI lookup needed for COC(=O)/C(=N/NC(N)=O)C(C(=O)OC)C(=O)C(=O)Nc1ccc(Cl)cc1 (stereo not given) , thanks.
A: > 100 µM

Q: TGI lookup needed for COc1ccc(C2CCc3cc4c(cc3/C2=N/OC(C)=O)OCO4)cc1OC (stereo not given) , thanks.
A: 78.1 µM

Q: TGI lookup needed for CCSC(SCC)=C1C(=O)N(c2ccccc2)N=C1C , thanks.
A: 32 µM

Q: TGI lookup needed for Cc1csc(NC(=NCCN2CCOCC2)Nc2nc(C)cs2)n1 , thanks.
A: > 100 µM

Q: TGI lookup needed for CCCCCCCCCCCCCCCCOC(=O)c1cc(O)cc(C(=O)OCCCCCCCCCCCCCCCC)c1 , thanks.
A: > 100 µM

Q: TGI lookup needed for O=C1C=CC(=O)c2c(O)c(N3CCN(CCOCCO)CC3)c(Cl)c(O)c21 , thanks.
A: 2.25 µM

Q: TGI lookup needed for COC(OC)c1cc2c(cc1C(=O)[C@@]13CCC[C@@H]1NC(=O)O3)OCO2 , thanks.
A: > 100 µM

Q: TGI lookup needed for CC1(C2CCC3(C)OC3C2)CO1 (stereo not given) , thanks.
A: > 100 µM

Q: TGI lookup needed for C/C(CC(=O)N(C(C)C)C(C)C)=N\NC(=O)c1ccncc1 , thanks.
A: > 100 µM
